Molecular target: EGFR (d746-750) (Homo sapiens (Human), UniProt P00533, DEL746-750)
Sequence (P00533 other isoform, or with tags, fused parts or gaps del 1-694/del 746-750 limits assumed): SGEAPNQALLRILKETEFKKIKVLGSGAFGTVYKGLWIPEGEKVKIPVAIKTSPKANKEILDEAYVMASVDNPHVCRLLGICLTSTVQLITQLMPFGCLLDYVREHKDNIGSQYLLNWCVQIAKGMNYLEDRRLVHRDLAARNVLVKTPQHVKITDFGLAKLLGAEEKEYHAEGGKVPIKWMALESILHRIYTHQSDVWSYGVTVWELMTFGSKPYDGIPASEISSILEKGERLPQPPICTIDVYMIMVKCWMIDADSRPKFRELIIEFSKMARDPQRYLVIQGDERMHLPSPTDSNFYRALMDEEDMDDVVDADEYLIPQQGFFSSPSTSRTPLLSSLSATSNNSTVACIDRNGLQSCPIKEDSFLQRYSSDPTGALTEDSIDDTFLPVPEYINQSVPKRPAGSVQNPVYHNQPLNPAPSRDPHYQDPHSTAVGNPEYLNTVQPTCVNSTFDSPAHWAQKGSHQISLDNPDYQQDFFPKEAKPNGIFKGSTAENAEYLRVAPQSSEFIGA
Assay: Biochemical EGFR inhibition assay, EGFR (d746-750)
Details: Caliper mobility shift; 1.0 mM ATP or ATP Km; read-out: Enz EGFR_Exon19-del746-750 IC50
pIC50: −log10 of the molar value.
valueType: pIC50

{"columns": ["molecule", "val"],
 "data": [
  ["COc1cc2ncnc(-c3cn(C)nc3-c3ccccc3)c2nc1NC(=O)c1cn(C(C)C)nc1C", 8.89],
  ["COc1cc2ncnc(-c3cn(C)nc3-c3ccccc3)c2cc1NC(=O)N1CCO[C@@H]2C[C@@H]21 (stereo in doubt)", 8.89],
  ["CCOc1cc2ncnc(-c3cn(C)nc3-c3ccc(F)cc3)c2nc1NC(=O)[C@@]12C[C@@H]1CN(C)C2 (single isomer, unassigned)", 9.05],
  ["COc1cc2ncnc(-c3cn(C)nc3-c3ccccc3)c2cc1NC(=O)c1ccncc1", 8.77],
  ["COc1cc2ncnc(-c3cn(C)nc3-c3ccccc3)c2cc1OC(=O)N1CCOC(C)(C)C1", 8.51],
  ["COc1cc2ncnc(-c3cn(C)nc3-c3ccccc3)c2cc1OC(=O)N1CCN2CCCC2C1 (stereo in doubt) [Example 85]", 8.57],
  ["CCn1cc(-c2ncnc3cc(OC)c(NC(=O)c4cccnc4)cc23)c(-c2ccccc2)n1", 8.80]
]}

----------
Target: EGFR (d746-750) (Homo sapiens (Human), UniProt P00533, DEL746-750)
Test: Biochemical EGFR inhibition assay, EGFR (d746-750)
Details: Caliper mobility shift; 1.0 mM ATP or ATP Km; read-out: Enz EGFR_Exon19-del746-750 IC50
Note to self: use T only for IC50 readings below 2 nM; a reading exactly at 2 nM still gets F.

{"columns": ["compound", "categoryLabel"],
 "data": [
  ["COc1cc2ncnc(-c3cn(C)nc3-c3ccccc3)c2nc1O[C@@H](C)c1nnnn1C", "F"],
  ["Cc1ncsc1C(=O)Nc1cc2c(-c3cn(C)nc3-c3ccccc3)ncnc2cc1OCCN(C)C", "F"],
  ["COc1cc2ncnc(-c3cn(C)nc3-c3ccccc3)c2cc1O[C@H]1CN(C)C[C@H]1F", "F"],
  ["CCOc1cc2ncnc(-c3cn(C)nc3-c3ccccc3)c2cc1N1CC2CC(C1)O2", "T"],
  ["COc1cc2ncnc(-c3cn(C)nc3-c3ccccc3)c2cc1NC(=O)C1CC(F)(F)C1", "T"],
  ["COc1cc2ncnc(-c3cn(C)nc3-c3ccccc3)c2nc1O[C@@H](C)c1cnnn1C", "F"],
  ["CCn1cc(-c2ncnc3cc(-c4cnn(C)c4)ccc23)c(-c2ccccc2)n1", "T"],
  ["COc1cc2ncnc(-c3sc(C)nc3-c3ccccc3)c2cc1NC(=O)C1CC1", "T"],
  ["CCn1cc(-c2ncnc3cc(OC)c(NC(=O)[C@@]45C[C@@H]4CN(C)C5)nc23)c(-c2ccc(F)cc2)n1 (single isomer, unassigned)", "T"],
  ["CCc1cc2ncnc(-c3cn(C)nc3-c3ccccc3)c2nc1NC(=O)C12COCC1C2 (centres unmarked)", "F"],
  ["COc1cc2ncnc(-c3cn(C)nc3-c3ccccc3)c2cc1NC(=O)C1CC(OC)C1 (centres unmarked)", "T"],
  ["COc1cc2ncnc(-c3cn(CCO)nc3-c3ccccc3)c2cc1NC(=O)c1ccccc1F", "T"],
  ["COc1cc2ncnc(-c3cn(C)nc3-c3ccccc3)c2cc1NC(=O)N1CCOC(C)(C)C1", "T"],
  ["CCOc1cc2ncnc(-c3cn(C(C)C)nc3-c3ccccc3)c2cc1[C@H](C)O (single isomer, unassigned)", "T"]
]}
